target: wild type PRC2 (wtPRC2) complex (Homo sapiens, UniProt O75530); assay: EED LC-MS assay (SAH production by PRC2); type: biochemical; details: read-out: (b) IC50, EED LC-MS Qualified
Sequence (O75530 whole entry): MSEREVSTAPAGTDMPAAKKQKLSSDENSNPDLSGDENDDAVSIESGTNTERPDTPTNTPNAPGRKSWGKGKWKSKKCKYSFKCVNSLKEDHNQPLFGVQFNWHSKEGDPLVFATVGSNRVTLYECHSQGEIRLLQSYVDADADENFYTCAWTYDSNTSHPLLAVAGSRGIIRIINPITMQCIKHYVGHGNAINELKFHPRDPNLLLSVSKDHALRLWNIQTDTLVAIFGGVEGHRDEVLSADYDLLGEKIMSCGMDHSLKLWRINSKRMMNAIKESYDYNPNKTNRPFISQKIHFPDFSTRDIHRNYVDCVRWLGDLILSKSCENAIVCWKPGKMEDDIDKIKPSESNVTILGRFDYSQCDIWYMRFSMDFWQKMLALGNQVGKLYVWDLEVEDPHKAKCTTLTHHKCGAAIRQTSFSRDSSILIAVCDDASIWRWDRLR
Sequence (Q15910 whole entry partner): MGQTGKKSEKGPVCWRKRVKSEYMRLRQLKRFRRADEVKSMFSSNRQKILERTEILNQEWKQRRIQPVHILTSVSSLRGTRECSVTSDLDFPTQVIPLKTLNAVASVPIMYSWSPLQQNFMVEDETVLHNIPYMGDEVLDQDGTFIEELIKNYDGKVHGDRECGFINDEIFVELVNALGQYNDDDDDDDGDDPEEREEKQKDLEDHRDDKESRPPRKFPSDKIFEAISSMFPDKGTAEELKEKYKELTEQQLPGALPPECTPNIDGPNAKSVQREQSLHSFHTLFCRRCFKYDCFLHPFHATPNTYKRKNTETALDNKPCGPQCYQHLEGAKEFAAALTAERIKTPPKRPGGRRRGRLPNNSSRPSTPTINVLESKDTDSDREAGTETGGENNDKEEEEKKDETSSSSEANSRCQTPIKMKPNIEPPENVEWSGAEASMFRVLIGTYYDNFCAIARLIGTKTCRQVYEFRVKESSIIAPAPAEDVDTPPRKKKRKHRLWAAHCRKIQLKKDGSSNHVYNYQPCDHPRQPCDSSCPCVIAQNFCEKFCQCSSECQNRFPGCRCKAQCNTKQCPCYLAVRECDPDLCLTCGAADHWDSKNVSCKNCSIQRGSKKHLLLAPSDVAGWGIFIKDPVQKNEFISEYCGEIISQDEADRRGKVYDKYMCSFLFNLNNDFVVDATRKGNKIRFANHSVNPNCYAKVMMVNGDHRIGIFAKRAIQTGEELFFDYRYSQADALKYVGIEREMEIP
Sequence (Q15022 whole entry partner): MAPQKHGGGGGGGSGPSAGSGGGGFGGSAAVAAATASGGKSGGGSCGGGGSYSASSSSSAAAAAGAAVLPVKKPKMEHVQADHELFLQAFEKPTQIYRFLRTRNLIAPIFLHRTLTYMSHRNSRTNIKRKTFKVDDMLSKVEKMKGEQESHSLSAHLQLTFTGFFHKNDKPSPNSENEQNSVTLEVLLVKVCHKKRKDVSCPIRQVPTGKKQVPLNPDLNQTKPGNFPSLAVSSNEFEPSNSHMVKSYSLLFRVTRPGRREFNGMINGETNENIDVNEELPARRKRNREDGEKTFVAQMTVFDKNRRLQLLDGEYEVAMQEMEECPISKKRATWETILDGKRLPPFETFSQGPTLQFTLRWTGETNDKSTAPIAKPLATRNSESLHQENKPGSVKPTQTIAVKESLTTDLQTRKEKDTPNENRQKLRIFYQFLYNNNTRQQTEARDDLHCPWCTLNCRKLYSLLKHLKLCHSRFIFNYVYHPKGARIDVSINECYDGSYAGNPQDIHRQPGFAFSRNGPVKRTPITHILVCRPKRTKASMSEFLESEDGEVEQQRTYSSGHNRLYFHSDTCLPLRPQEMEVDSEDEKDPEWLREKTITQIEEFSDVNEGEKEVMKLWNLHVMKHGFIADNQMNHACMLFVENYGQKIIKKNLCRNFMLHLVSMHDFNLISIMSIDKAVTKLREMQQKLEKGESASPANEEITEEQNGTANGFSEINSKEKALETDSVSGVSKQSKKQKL
Sequence (Q09028 whole entry partner): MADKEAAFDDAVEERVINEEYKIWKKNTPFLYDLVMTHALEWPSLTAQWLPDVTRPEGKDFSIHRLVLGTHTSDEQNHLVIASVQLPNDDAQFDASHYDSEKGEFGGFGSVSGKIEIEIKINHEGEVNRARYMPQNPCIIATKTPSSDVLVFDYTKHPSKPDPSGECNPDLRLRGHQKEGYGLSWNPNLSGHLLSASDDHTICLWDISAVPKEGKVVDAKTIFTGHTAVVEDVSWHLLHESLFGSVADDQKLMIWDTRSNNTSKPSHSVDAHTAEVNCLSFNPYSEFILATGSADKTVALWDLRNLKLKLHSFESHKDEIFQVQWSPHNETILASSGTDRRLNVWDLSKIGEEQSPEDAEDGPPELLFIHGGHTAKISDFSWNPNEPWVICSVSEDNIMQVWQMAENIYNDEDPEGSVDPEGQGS
Sequence (Q6ZN18 whole entry partner): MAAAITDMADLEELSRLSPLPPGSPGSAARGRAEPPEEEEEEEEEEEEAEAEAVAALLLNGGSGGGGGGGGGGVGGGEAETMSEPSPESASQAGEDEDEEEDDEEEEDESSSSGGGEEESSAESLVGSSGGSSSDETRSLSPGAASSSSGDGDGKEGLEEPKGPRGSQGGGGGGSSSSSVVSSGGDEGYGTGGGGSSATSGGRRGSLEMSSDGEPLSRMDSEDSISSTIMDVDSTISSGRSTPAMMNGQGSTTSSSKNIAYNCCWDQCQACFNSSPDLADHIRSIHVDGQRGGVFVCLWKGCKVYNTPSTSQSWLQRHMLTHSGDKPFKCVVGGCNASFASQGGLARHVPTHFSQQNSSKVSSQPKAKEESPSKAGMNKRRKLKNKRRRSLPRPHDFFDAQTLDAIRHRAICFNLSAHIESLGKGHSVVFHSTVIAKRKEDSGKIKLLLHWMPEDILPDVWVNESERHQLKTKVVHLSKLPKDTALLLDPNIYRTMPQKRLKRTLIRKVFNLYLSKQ
Readout name: pIC50
Please express pIC50 as -log10 of the molar concentration.

Name the recorded pIC50 for COc1cccc(F)c1CNc1ccc(-c2ccc(OCCO)cc2)c2nncn12 .
6.82

Name the recorded pIC50 for COc1cccc(F)c1CNc1ccc(-c2ccc(S(=O)(=O)NCCO)cc2)c2nncn12 .
5.76

Name the recorded pIC50 for COc1ccccc1CNc1ccc(-c2cc(F)c(CN3CCCCC3)c(F)c2)c2nncn12 .
5.96

Name the recorded pIC50 for COc1ccccc1CNc1ccc(-c2cc(F)c(CN(C)C)c(F)c2)c2nncn12 .
6.11

Name the recorded pIC50 for CCN1CCN(c2ccc(-c3ccc(NCc4ccccc4OC)n4cnnc34)cn2)CC1 .
6.52

Name the recorded pIC50 for COc1ccccc1CNc1ccc(-c2ccc(C[N+](C)(C)[O-])cc2)c2nncn12 .
6.34

Name the recorded pIC50 for COc1ccccc1CNc1ccc(-c2ccc([S+](C)[O-])cc2)c2nncn12 (centres unmarked) .
5.84

Name the recorded pIC50 for COc1cccc(F)c1CNc1ccc(-c2cnc(N3CCN(C(C)C)CC3)c(Cl)c2)c2nncn12 .
6.52

* * *

biological target: EED (1-441)-His protein (Homo sapiens, UniProt O75530); construct: 30 nM EED (1-441)-His protein; assay: EED-H3K27Me3 peptide competition binding assay by AlphaScreen; conditions: EED-H3K27Me3 peptide competition, AlphaScreen; read-out: (a) IC50 EED Alphascreen binding Qualified
One threshold, 30 nM, splits the recorded IC50 values: lower ones are Met, equal or higher ones are Not met.

Threshold test, IC50 < 30 nM: COc1ccc(F)c(F)c1CNc1ccc(-c2ccc(S(C)(=O)=O)cc2)c2nncn12
Not met

Threshold test, IC50 < 30 nM: COc1cccc(F)c1CNc1ccc(-c2cncnc2C(C)C)c2nncn12
Not met

Threshold test, IC50 < 30 nM: COc1cccc(F)c1CNc1ccc(-c2ccc(C(C)O)nc2)c2nncn12 (centres unmarked)
Not met

Threshold test, IC50 < 30 nM: CCc1ncccc1-c1ccc(NCc2c(F)cccc2OC)n2cnnc12
Not met

Threshold test, IC50 < 30 nM: COc1cc(F)cc(F)c1CNc1ccc(-c2ccc(C#N)nc2C)c2nncn12
Met

Threshold test, IC50 < 30 nM: CCc1ncncc1-c1ccc(NCc2c(F)cccc2OC)n2cnnc12
Met

Threshold test, IC50 < 30 nM: COc1cccc(F)c1CNc1ccc(-c2cnccc2CO)c2nncn12
Met

Threshold test, IC50 < 30 nM: COc1cccc(F)c1CNc1ccc(-c2cnc(S(C)(=O)=O)cc2C)c2nncn12
Not met

Threshold test, IC50 < 30 nM: COc1cccc(F)c1CNc1ccc(-c2c(C)nn(C(C)C)c2C)c2nncn12
Met

Threshold test, IC50 < 30 nM: COc1cccc(F)c1CNc1ccc(-c2ccccc2C)c2nncn12
Not met

Threshold test, IC50 < 30 nM: COc1cccc(F)c1CNc1ccc(-c2ccc(N3CCOCC3)nc2C)c2nncn12
Met

Threshold test, IC50 < 30 nM: COc1cccc(F)c1CNc1ccc(-c2cncc(C(C)(C)O)c2)c2nncn12
Not met

Threshold test, IC50 < 30 nM: COc1ccc(-c2ccc(NCc3c(F)cc(F)cc3OC)n3cnnc23)c(C)n1
Met

Threshold test, IC50 < 30 nM: COc1cccc(F)c1CNc1ccc(-c2cncnc2C)c2nncn12
Met

Threshold test, IC50 < 30 nM: COc1cccc(F)c1CNc1ccc(-c2ccc(C(=O)N(C)C)cc2C)c2nncn12
Met

Threshold test, IC50 < 30 nM: COc1ccc(-c2ccc(NCc3c(F)cccc3OC)n3cnnc23)cn1
Not met

Threshold test, IC50 < 30 nM: COc1cccc(F)c1CNc1c(F)cc(-c2cccnc2C)c2nncn12
Not met

Threshold test, IC50 < 30 nM: COc1cccc(F)c1CNc1ccc(-c2cnccc2C(F)(F)F)c2nncn12
Not met

Threshold test, IC50 < 30 nM: COc1cccc(F)c1CNc1ccc(-c2cnc(C#N)cc2C)c2nncn12
Met

Threshold test, IC50 < 30 nM: CNC(=O)Cc1cncc(-c2ccc(NCc3c(F)cccc3OC)n3cnnc23)c1
Not met

Threshold test, IC50 < 30 nM: COc1cccc(F)c1CNc1ccc(-c2ccc(C)nc2C)c2nncn12
Met

Threshold test, IC50 < 30 nM: COc1cccc(F)c1CNc1ccc(-c2cncc(O)c2)c2nncn12
Met
